MEASUREMENT_NOTES: BET inhibitor-based combinations targeting novel dependencies in MECOM-rearranged (r) AML: AML-191 cell line (AID 2202236; further: nearly all actives have a fitted effect of over 35% in size; further: potency means the concentration at half of the fitted maximal effect)
CONDITION_INFO: AML-191 viability, CellTiter-Glo luminescence, 48 h; series mostly up to 46 µM
Records with an inconclusive call do not appear. Calls of active or inactive are those of the source. The call rests on the fitted dose curve; in most records, active means well fitted inhibition curve with a large enough effect; inconclusive means small, poorly fitted or top-dose-only effect; inactive means flat fitted curve, though single readings scatter.
MEASURED_PARAMETER: Potency

For orientation, consider the following solved cases.
{"COMPOUND": "CCC(=O)NCC[C@@H]1CCc2ccc3c(c21)CCO3", "Potency": "inactive"}
{"COMPOUND": "C[C@@H]1CC(=O)Nc2cccc(-c3cnn(C(C)(C)C)c3)c2N1", "Potency": "16.6 µM (active)"}
{"COMPOUND": "Nc1nc(Nc2ccc3c(c2)CC[C@@H](N2CCCC2)CC3)nn1-c1cc2c(nn1)-c1ccccc1CCC2", "Potency": "18.6 µM (active)"}
{"COMPOUND": "C[C@@H]1N=C(N)NC(N(C)C)=N1", "Potency": "inactive"}

stdin: I am curious: what Potency value has been reported for CN(C)Cc1ccc(S(=O)(=O)n2ccc(/C=C/C(=O)NO)c2)cc1 ?
stdout: 4.17 µM (active)

stdin: Name the recorded Potency for CSC[C@H]1CN(Cc2c[nH]c3c(N)ncnc23)C[C@@H]1O .
stdout: inactive

====

TARGET_OR_TEST_SYSTEM: Aldehyde dehydrogenase, mitochondrial (Homo sapiens) (UniProt P05091)
MEASUREMENT_NOTES: qHTS for Inhibitors of the Aldehyde Dehydrogenase Family (ALDH2) Primary screen (AID 2061308); further: nearly all actives have a fitted effect of over 55% in size
CONDITION_INFO: ALDH2 enzyme inhibition qHTS, 1536-well; series mostly up to 56 µM
Records with an inconclusive call do not appear. The source made the active and inactive calls. The call rests on the fitted dose curve; in most records, active means well fitted inhibition curve with a large enough effect; inconclusive means small, poorly fitted or top-dose-only effect; inactive means flat fitted curve, though single readings scatter.
MEASURED_PARAMETER: outcome

The cases that follow already have their outcome on record.
{"COMPOUND": "O=C(CCCCSc1nnc(-c2cccc3ccccc23)o1)Oc1ccc(F)cc1", "outcome": "inactive"}
{"COMPOUND": "NC(=O)C1CCN(c2ncc(-c3ccc4c(c3)OCO4)s2)CC1", "outcome": "inactive"}
{"COMPOUND": "O=C(Nc1ccccc1)Nc1ccccc1", "outcome": "inactive"}
{"COMPOUND": "Cc1ccc(S(=O)(=O)Nc2cnccc2C(=O)Nc2nc(-c3nc4ccccc4s3)cs2)cc1", "outcome": "inactive"}
{"COMPOUND": "Cc1cc2c(s1)c1c(n2C)C(=O)N(Cc2ccccc2F)C1", "outcome": "inactive"}

stdin: # lookup: outcome of O=C(O)c1ccc2c(c1)C(=O)N([C@@H](Cc1ccc(O)cc1)C(=O)O)C2=O
stdout: inactive

stdin: Please report the recorded outcome for Cc1nc(CCN(C)c2ncnc3ccc(-c4ccc5c(c4)OCO5)cc23)cs1 .
stdout: inactive

stdin: Need outcome, item O=C1CCc2cc(S(=O)(=O)Nc3ccc(F)c(Cl)c3)ccc2N1
stdout: inactive

stdin: Entry under review: COc1cc2c(s1)c1cnn(Cc3ccccc3F)c(=O)c1n2C . Reported outcome?
stdout: inactive

stdin: Reported outcome, compound O=C(Nc1ncc(Cc2cccc(C(F)(F)F)c2)s1)c1ccc(-c2cccc([N+](=O)[O-])c2)o1 : ____
stdout: inactive

====

TARGET_OR_TEST_SYSTEM: Retinaldehyde dehydrogenase 3 (Homo sapiens) (UniProt P47895)
MEASUREMENT_NOTES: qHTS for Inhibitors of the Aldehyde Dehydrogenase Family (ALDH1A3) Primary screen (AID 2061315)
CONDITION_INFO: ALDH inhibition qHTS; series mostly up to 56 µM
Records with an inconclusive call do not appear. Active and inactive are the calls of the source. Calls follow the shape of the dose curve; as a rule, active = well fitted inhibition curve with a large enough effect; inconclusive = small, poorly fitted or top-dose-only effect; inactive = no such curve, though single readings can be large or run the other way.
MEASURED_PARAMETER: activity change, negative = inhibition

{"COMPOUND": "Nc1nccc(-c2c(-c3ccc(F)cc3)ncn2C2CCCCC2)n1", "ASSAY_RESULT": "inactive"}
{"COMPOUND": "CNc1oc(-c2cccc3ccccc23)nc1C(=O)Nc1cccc(C#N)c1", "ASSAY_RESULT": "inactive"}
{"COMPOUND": "CC(C)c1ccc(-n2ncc3c(=O)n(CC(=O)Nc4cc(F)ccc4Cl)cnc32)cc1", "ASSAY_RESULT": "inactive"}
{"COMPOUND": "COc1ccc(C2c3c(N)nc(CCc4ccccc4)nc3Oc3ccc4ccccc4c32)cc1OC (stereo unspecified)", "ASSAY_RESULT": "inactive"}
{"COMPOUND": "COC(=O)Nc1sc2c(c1C(N)=O)CCCC2", "ASSAY_RESULT": "inactive"}
{"COMPOUND": "Cc1cccc(S(=O)(=O)Nc2cnccc2C(=O)Nc2nc(-c3ccccc3)cs2)c1", "ASSAY_RESULT": "inactive"}
{"COMPOUND": "Fc1cc(Nc2nc(-c3ccncc3)nc3ccccc23)ccc1C(F)(F)F", "ASSAY_RESULT": "inactive"}
{"COMPOUND": "O=C(CNC(=O)c1ccc(Cl)c(C(F)(F)F)c1)OC(C(=O)Nc1cc(C(F)(F)F)ccc1Cl)c1ccccc1 (stereo unspecified)", "ASSAY_RESULT": "inactive"}

Could you now look at the following compound, please?
stdin: Fill blank: measured activity change, negative = inhibition of the compound COc1ccc(CNc2ccc(S(=O)(=O)Nc3nccs3)cc2)cc1O is ____.
stdout: inactive

====

TARGET_OR_TEST_SYSTEM: Retinal dehydrogenase 2 (Homo sapiens)
MEASUREMENT_NOTES: qHTS for Inhibitors of the Aldehyde Dehydrogenase Family (ALDH1A2) Confirmation screens (AID 2061314); further: nearly all actives have a fitted effect of over 65% in size
CONDITION_INFO: ALDH1A2 enzyme inhibition qHTS confirmation; series mostly up to 45.9 µM
Records with an inconclusive call do not appear. The source made the active and inactive calls. Calls follow the shape of the dose curve; as a rule, active = well fitted inhibition curve with a large enough effect; inconclusive = small, poorly fitted or top-dose-only effect; inactive = no such curve, though single readings can be large or run the other way.
Give your call using only these classes: True for active, False for inactive

Before answering, review these 4 worked examples.
{"COMPOUND": "CN(c1ccccc1)c1ccc(CNc2nn3c(=O)c4ccccc4nc3s2)cc1", "TARGET_OR_TEST_SYSTEM": "Retinal dehydrogenase 2 (Homo sapiens)", "ANSWER_LABEL": "False"}
{"COMPOUND": "COc1ccc(S(=O)(=O)N2CCC(N(C(=O)C3CC3)C3CCOCC3)CC2)cc1", "TARGET_OR_TEST_SYSTEM": "Retinal dehydrogenase 2 (Homo sapiens)", "ANSWER_LABEL": "False"}
{"COMPOUND": "Oc1cc(NCc2ccc(F)cc2)cc2cccnc12", "TARGET_OR_TEST_SYSTEM": "Retinal dehydrogenase 2 (Homo sapiens)", "ANSWER_LABEL": "False"}
{"COMPOUND": "Cc1ccc(S(=O)(=O)N2CCC(C(=O)Nc3ccc(Oc4ccccc4)cc3)CC2)cc1", "TARGET_OR_TEST_SYSTEM": "Retinal dehydrogenase 2 (Homo sapiens)", "ANSWER_LABEL": "False"}

stdin: I would be grateful if you could indicate the recorded call for CC(=O)NC(C)c1cc(F)c2cccnc2c1O (stereo unspecified) .
stdout: True

stdin: Hi, do you know how O=C(Nc1cccc2nn(-c3ccc(F)cc3)cc12)c1ccccn1 came out in this test?
stdout: False

====

TARGET_OR_TEST_SYSTEM: Retinal dehydrogenase 2 (Homo sapiens) (UniProt O94788)
MEASUREMENT_NOTES: qHTS for Inhibitors of the Aldehyde Dehydrogenase Family (ALDH1A2) Confirmation screens (AID 2061314); further: nearly all actives have a fitted effect of over 65% in size
CONDITION_INFO: ALDH1A2 enzyme inhibition qHTS confirmation; series mostly up to 45.9 µM
Inconclusive results are not listed. Active and inactive are the calls of the source. Calls follow the shape of the dose curve; as a rule, active = well fitted inhibition curve with a large enough effect; inconclusive = small, poorly fitted or top-dose-only effect; inactive = no such curve, though single readings can be large or run the other way.
One label from this list, please: yes for active, no for inactive

Completed entries (count: 4):
{"COMPOUND": "CC(=O)c1ccc(N2CCN(S(=O)(=O)c3ccc4c(c3)C(Cl)(Cl)C(=O)N4)CC2)cc1", "ANSWER_LABEL": "yes"}
{"COMPOUND": "COc1cccc(C2c3c(ncn(-c4ccccc4-c4ccccc4)c3=N)Oc3ccc4ccccc4c32)c1 (stereo not given)", "ANSWER_LABEL": "yes"}
{"COMPOUND": "CCN(CC)c1ccc(NC(=O)Nc2ccc(C(C)=O)cc2)cc1", "ANSWER_LABEL": "no"}
{"COMPOUND": "O=C1COc2cc([S+](=O)([O-])Nc3ccc(Cl)c(Cl)c3)c(Cl)cc2N1", "ANSWER_LABEL": "yes"}

stdin: # outcome recorded in this test, key = CCc1c(-c2ccccc2)nc2ccccc2c1C(=O)NC(C)c1ccccc1 (stereo not given)
stdout: no

stdin: What was the test verdict on COc1ccc(C2Nc3ccccc3C(=O)N2Cc2ccccc2C)cc1COc1ccc(NC(C)=O)cc1 (stereo not given) ?
stdout: yes

stdin: Recorded test call requested for CC(=O)c1ccc(NC(=O)c2cc(-c3ccc(C)s3)nc3ccccc23)cc1
stdout: no

stdin: // param item: FC(F)Oc1ccc(C2=Nn3c(nnc3-c3ccccc3C(F)(F)F)SC2)cc1OCC1CC1 ; yields the recorded call
stdout: yes

stdin: How was Cc1ccc(-c2cc(C(=O)NCc3cccc(F)c3)nn3cnnc23)cc1 classified in this test?
stdout: no

stdin: // outcome(item) with item = CCOCc1cc(CN2CCN(c3cccc(C(F)(F)F)c3)CC2)c(O)c2ncccc12
stdout: no
